- assay-info: inhibitors of E-selectin induction by TNFa, primary screen, imaging, HUVEC, immunofluorescence, MLSMR starter and 10KST1 sets (AID 487);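 note: signal is fraction of cell area covered by stained E-selectin grains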
- details: HUVEC TNFalpha-induced E-selectin immunofluorescence imaging, at 2 µM; stronger effect = higher value
Calls of active or inactive are those of the source.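 Rule for the calls: active = visually confirmed hit in the image check and inhibition above 20%; inconclusive = visually confirmed hit but inhibition not above 20%; inactive = no visual hit in the image check.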
measured-property: inhibition

Some compounds with recorded inhibition:
INSERT INTO assay_data (compound, reported_value) VALUES
  ('CCn1c(C)cc(=S)c2ccccc21', '-56.4% (inactive)'),
  ('CCNC(=O)COn1c(SCC(=O)NCC)nc2ccccc2c1=O', '10% (inactive)'),
  ('COc1cccc(-n2c(SC3CCOC3=O)nc3ccccc3c2=O)c1 (stereo unspecified)', '7.5% (inactive)'),
  ('CCOC(=O)CSc1nnc(CCc2nc3ccccc3[nH]2)n1C', '12.7% (inactive)'),
  ('c1cncc(-c2nnc3n2N=C(c2cccs2)CS3)c1', '-28.3% (inactive)');

Inquiry: GET /values?readout=inhibition&item= CC1CCCCN1CCNS(=O)(=O)c1ccc2c(c1)oc(=O)n2C (stereo unspecified)
Reply text: 18.9% (inactive)

Inquiry: // query: COc1cccc(OC)c1C(=O)Nc1nc2ccc(S(C)(=O)=O)cc2s1
Reply text: -8.7% (inactive)

Inquiry: // query: Cc1cccc2cc(CN(CC3CCCO3)C(=O)c3cnccn3)c(=O)[nH]c12 (stereo unspecified)
Reply text: -41% (inactive)

Inquiry: // query: COC(=O)c1ccccc1NC(=O)C1CC=CCC1C(=O)O (stereo unspecified)
Reply text: 0.7% (inactive)

Inquiry: // query: CCc1ccc(N2CC(C(=O)OCC(=O)NC3CCS(=O)(=O)C3)CC2=O)cc1 (stereo unspecified)
Reply text: 6.8% (inactive)

Inquiry: // query: c1ccc(-c2nnc(-c3ccco3)n2-c2ccccc2)cc1
Reply text: -75.9% (inactive)

----------
Examples of compounds with documented inhibition follow.
- assay-info: inhibitors of Sendai virus-induced IRF3 signaling, primary screen, TLR/RLR signaling modifier project, cell-based, Sendai virus stimulus, luciferase, 10K MLSCN set (AID 602276);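 note: firefly luciferase from ISG56 promoter only with Renilla not read in this screen; 0% = Sendai virus plus DMSO and 100% = medium plus DMSO without virus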
- details: HEK293 RL24 IRF3 luciferase reporter, at 10 µM, stronger effect = higher value
Output spec: scalar in %, unitless text.

Some compounds with recorded inhibition:
INSERT INTO results (compound, measured_property, reported_value) VALUES
  ('CCOC(=O)c1sc(NC(=O)C2CC=CCC2C(=O)O)nc1C (configuration not stated)', 'inhibition', 21.8),
  ('CCOC(=O)c1sc(NC(=O)CSc2n[nH]c(-c3ccccc3)n2)c(C#N)c1C', 'inhibition', 7.86),
  ('COc1cccc(NC(=O)C2CCCN(S(=O)(=O)c3cccc4cccnc34)C2)c1 (configuration not stated)', 'inhibition', 2),
  ('COc1ccc(-c2oc3ncn(CCN4CCOCC4)c(=N)c3c2-c2ccc(OC)cc2)cc1', 'inhibition', 1.98),
  ('Cc1cc(NS(=O)(=O)Cc2ccccc2)cc(C)c1OCC(=O)N1CCOCC1', 'inhibition', 14.5),
  ('O=C(O)CCn1[nH]c(=O)ccc1=O', 'inhibition', 21.4),
  ('COc1ccc(S(=O)(=O)Nc2cc(C)on2)cc1OC', 'inhibition', 7.69),
  ('O=C(Nc1cccc2ccccc12)c1cnccn1', 'inhibition', -180);

Inquiry: GET /values?readout=inhibition&item= COc1ccc(NC(=O)CSc2c(C)nn(-c3nnc(C)c(=O)[nH]3)c2C)cc1
Reply text: 1.41

Inquiry: // query: CC1=C(C(=O)Nc2ccccc2)C(c2ccco2)C(C#N)=C(SCC(=O)Nc2cccc(C)c2C)N1 (configuration not stated)
Reply text: 9.65

Inquiry: // query: Cn1c(Cl)nc2ccccc21
Reply text: 19.3

Inquiry: // query: COc1ccc(-c2nnc(SCC(=O)Nc3sc4c(c3C#N)CCC4)n2CC2CCCO2)cc1 (configuration not stated)
Reply text: 7.87

Inquiry: // query: CCOC(=O)C1=C(N)OC2=C(C(=O)CC(C)(C)C2)C1c1ccco1 (configuration not stated)
Reply text: -0.305

Inquiry: // query: O=C(Cn1cc2c(n1)CCCC2)NCCc1ccccc1
Reply text: 5.6

Inquiry: // query: O=C(NCC1CCCO1)C1CCCN(Cc2cnn(-c3ccccc3)c2-n2cccc2)C1 (configuration not stated)
Reply text: -11.1

Inquiry: // query: CC(C)Cn1c(N)c(C(=O)COC(=O)c2ccc3c(c2)OCCO3)c(=O)n(C)c1=O
Reply text: -14.6

Inquiry: // query: O=C(CN1C(=O)c2ccccc2S1(=O)=O)NCc1ccccn1
Reply text: 13.6
